# System: SN12C
# Assay protocol: NCI tumour cell line growth inhibition, 48 h
The source made the active and inactive calls. Cut-off read from the data, not from the text of the source: active = GI50 up to about 1.1 µM and inactive = higher. Residues, ends and D or L forms follow the SMILES beside them.
Outcome measure: GI50

Here's what some known entries look like.
Compound: CCC(C)C(NC(=O)C1CCCN1)C(=O)NC(C(=O)NCC(=O)NC(CC(N)=O)C(=O)NC(CC(C)C)C(=O)NC(CC(C)C)C(=O)NC(CCCCN)C(N)=O)C(C)C (centres undefined) (H-PIVGNLLK-NH2; configuration not given here)
Recorded value: > 75 µM (inactive)

Compound: COc1ccc(N2C(=O)C3c4[nH]c5ccc(OCc6ccccc6)cc5c4C4CCC(C(C)C)CC4C3C2=O)cc1 (centres undefined)
Recorded value: > 100 µM (inactive)

Compound: CS(=O)(=O)CC(=O)c1ccccc1
Recorded value: > 100 µM (inactive)

Turning now to a further compound:
Req: For the compound shown here, CC1CN=C(N(C(=O)Nc2ccccc2)c2ccccc2)S1 (centres undefined) , give the reported GI50.
Resp: 25.2 µM (inactive)

----------
# Tested on: ACHN
# Assay protocol: NCI tumour cell line growth inhibition, 48 h
The source made the active and inactive calls. No stated cut-off is given here; in the data, active = GI50 up to about 1.1 µM and inactive = higher.
Outcome measure: GI50

Compound: CCCCCCCN1C(=O)C(O)(c2ccc(C3(O)C(=O)N(CCCCCCC)c4ccccc43)s2)c2ccccc21 (configuration not stated)
Target: ACHN
Recorded value: 2.26 µM (inactive)
//
Compound: C=CCC1=C2CCCCC2CCC1=O (configuration not stated)
Target: ACHN
Recorded value: > 100 µM (inactive)
//
Compound: O=C(CC1(O)C(=O)Nc2c(Cl)ccc(Cl)c21)c1ccc2ccccc2c1 (configuration not stated)
Target: ACHN
Recorded value: 12.9 µM (inactive)
//
Compound: Nc1ccc(-c2nc3ccc(Cc4ccc5nc(-c6ccc(N)cc6)oc5c4)cc3o2)cc1
Target: ACHN
Recorded value: > 100 µM (inactive)
//
Compound: Cn1ncc2cc3c(Nc4ccc(Cl)cc4)cccc3nc21
Target: ACHN
Recorded value: 15 µM (inactive)
//
Compound: COc1ccccc1C(N)c1ccccc1 (configuration not stated)
Target: ACHN
Recorded value: > 100 µM (inactive)

Req: Fill in the blank: the reported GI50 of `O=c1c2nc3ccccc3c(=O)n2ncn1-c1ccccc1Cl` is ____.
Resp: > 100 µM (inactive)

Req: Which value of GI50 has been reported for `COC(=O)CSc1cc(Cl)c(C)cc1S(=O)(=O)Nc1n[nH]c(N)n1` in the records?
Resp: > 10 µM (inactive)

Req: What value of measured GI50 is listed for `CC1(C)N=C(Oc2ccccc2)n2nccc2N1` ?
Resp: > 100 µM (inactive)

Req: GI50 for Cc1cn(C2CC(N/C(=N/C#N)NCC3OC(n4cnc5c(N)ncnc54)CC3O)C(CO)O2)c(=O)[nH]c1=O (configuration not stated) ?
Resp: > 100 µM (inactive)

Req: I am curious: what GI50 value has been reported for `Nc1ccc(-c2nc3ccc(F)cc3s2)cc1Cl` ?
Resp: > 100 µM (inactive)

Req: Which GI50 reading was recorded for the compound c1ccc(C2CC(NC3CCCCC3)=Nc3ccccc3N2)cc1 (configuration not stated) ?
Resp: > 100 µM (inactive)

Req: # query: GI50 of entry CCN1CCC(O)(/C=C/c2ccc(C)cc2)C(C(=O)/C=C/c2ccc(C)cc2)C1 (configuration not stated)
Resp: 3.7 µM (inactive)

Req: Value lookup for GI50; key = `COC(=O)c1ccc(CCc2cc(O)ccc2O)cc1`
Resp: 13.3 µM (inactive)

Req: # get_value(readout='GI50', item= `CCOC(=O)c1ncn2c1[nH]c(=O)c1ccccc12` )
Resp: > 100 µM (inactive)

----------
# System: DU-145
# Assay protocol: NCI tumour cell line growth inhibition, 48 h
The source made the active and inactive calls. No stated cut-off is given here; in the data, active = GI50 up to about 1.1 µM and inactive = higher.
Outcome measure: GI50

Answered cases to consult:
Compound: CCN(CCCN(CC)C(=O)Nc1ccccc1)C(=O)Nc1ccccc1
GI50: > 100 µM (inactive)

Compound: CN(C)c1ccc(/C=C(\C#N)c2nc(-c3cc4ccccc4oc3=O)cs2)cc1
GI50: > 50 µM (inactive)

Compound: CCCCSc1n/c(=C\c2ccc(N(C)C)cc2)c2nnnn12
GI50: > 100 µM (inactive)

Compound: CCc1ccccc1N1CCN(C(=O)c2cc(OC)c(OC)c(OC)c2)CC1
GI50: 0.0207 µM (active)

Compound: C=C(C)[C@@H]1CC[C@]2(C(=O)O)CC[C@]3(C)[C@H](CCC4[C@@]5(C)CC[C@H](C(=O)/C=C/c6ccc(O)c(O)c6)C(C)(C)[C@@H]5CC[C@]43C)[C@@H]12 (stereo partly specified)
GI50: 5.15 µM (inactive)

# input for lookup
Req: I'm curious: which GI50 was measured for `CCOC(CCNCC(OCC)OCC)OCC` tested on DU-145?
Resp: > 10 µM (inactive)

----------
The compounds listed here are annotated with their GI50.
# System: NCI-H522
# Assay protocol: NCI tumour cell line growth inhibition, 48 h
Calls of active or inactive are those of the source. No stated cut-off is given here; in the data, active = GI50 up to about 1.1 µM and inactive = higher.

Observe how each entry below is paired with its result.
Compound: Cc1occc1/C(S)=N\c1ccc(Cl)c(C(=O)OCC2CC2)c1
GI50: 21.9 µM (inactive)

Compound: O=C1c2ccccc2C(=O)c2cc3c(cc21)C[S+]([O-])C3
GI50: > 100 µM (inactive)

Compound: COc1cc(C=O)cc(/C=N/N=C/c2ccccc2O)c1O
GI50: 40.5 µM (inactive)

Compound: Cc1c(C(=O)C(=O)c2ccccc2)c(C)c(C(=O)C(=O)c2ccccc2)c(C)c1C(=O)C(=O)c1ccccc1
GI50: > 100 µM (inactive)

Req: // lookup GI50 for COc1ccccc1C(=O)NCC1CCCN2CCCCC12 (stereo unspecified)
Resp: > 100 µM (inactive)

Req: Need GI50 of Cc1ccc(S(=O)(=O)N/N=C(\c2nc3ccc([N+](=O)[O-])cc3[nH]c2=O)C(O)c2ccc([N+](=O)[O-])cc2)cc1 (stereo unspecified) , thanks.
Resp: 10.8 µM (inactive)

----------
# Tested on: UACC-257
# Assay protocol: NCI tumour cell line growth inhibition, 48 h
Calls of active or inactive are those of the source. No stated cut-off is given here; in the data, active = GI50 up to about 1.1 µM and inactive = higher.
Classes to choose from: Y for active, N for inactive

Examples with answers:
Compound: COc1cc([C@@H]2c3cc4c(cc3[C@@H](Nc3ccc(NC(=O)c5cc([N+](=O)[O-])cn5C)cc3)[C@H]3COC(=O)[C@H]23)OCO4)cc(OC)c1O
Cat: Y
//
Compound: O=CN1CCN(C(=O)c2ccc(Cl)cc2Cl)C1=S
Cat: N
//
Compound: C=CCNc1nc2c(s1)C(=O)c1ccccc1C2=O
Cat: N

Turning to the following compound.
Req: Returns: the outcome recorded for COC(C)(C)C(O)C(O)C[C@H](C)C1CC=C2C1(C)CCC1[C@@]3(C)CCC(OC(C)=O)C(C)(C)C3CC(OC3OC(COC(C)=O)C(O)C(O)C3O)[C@@]21C (some centres undefined) in this assay.
Resp: N

----------
Recorded GI50 for the following compounds
# Test system: HT-29
# Assay protocol: NCI tumour cell line growth inhibition, 48 h
Calls of active or inactive are those of the source. Rule as the data show it: active = GI50 up to about 1.1 µM and inactive = higher.

Req: What value of GI50 has been recorded for this entry: CCOC(=O)C(C)(Cc1ccc(O)cn1)NC(=O)c1ccccc1 (stereo not drawn)
Resp: > 100 µM (inactive)

Req: I am curious: what GI50 value has been reported for CCOC(=O)C1=C(C)N(c2ccc(Cl)cc2)C2(O)C=CC(=O)C3C(=O)N(c4ccccc4)C(=O)C132 (stereo not drawn) ?
Resp: 1.82 µM (inactive)

Req: Suppose we examine the compound COc1ccc(C(CC(=O)c2ccc(O)cc2)C(C(=O)c2ccc(O)cc2)C(c2ccc(OC)cc2)C2C(=O)NC(=S)NC2=O)cc1 (stereo not drawn) ; what GI50 value has been reported?
Resp: 27 µM (inactive)

Req: // query GI50 value for entry `CN(C)c1ccc(/C=C(\C#N)c2nc(-c3cc4ccccc4oc3=O)cs2)cc1`
Resp: > 50 µM (inactive)

Req: For C=CCNC(=O)N(CCC)CCCCC(NC(C)=O)C(=O)NCc1ccccc1 (stereo not drawn) , what is its reported GI50?
Resp: > 100 µM (inactive)

Req: Fill blank: measured GI50 of the compound `O=C(O)CN(c1ccccc1)S(=O)(=O)c1ccc([N+](=O)[O-])cc1` is ____.
Resp: > 100 µM (inactive)

Req: Give its GI50 value. Item: COC(C)(C)C(O)C(O)C[C@H](C)C1CC=C2C1(C)CCC1[C@@]3(C)CCC(OC(C)=O)C(C)(C)C3CC(OC3OC(COC(C)=O)C(O)C(O)C3O)[C@@]21C (stereo partly drawn)
Resp: 3.41 µM (inactive)

Req: Item COc1cc2c3cc1Oc1c(OC)c(OC)cc4c1C(Cc1ccc(O)c(c1)Oc1ccc(cc1)CC3N(C)CC2)CN(C)C4 (stereo not drawn) has what recorded GI50?
Resp: 3.24 µM (inactive)
